# targetOrSystem: p110β/p85α (Homo sapiens, UniProt P42338)
# Construct: purchased Millipore
# Sequence (P42338 whole entry, species assumed): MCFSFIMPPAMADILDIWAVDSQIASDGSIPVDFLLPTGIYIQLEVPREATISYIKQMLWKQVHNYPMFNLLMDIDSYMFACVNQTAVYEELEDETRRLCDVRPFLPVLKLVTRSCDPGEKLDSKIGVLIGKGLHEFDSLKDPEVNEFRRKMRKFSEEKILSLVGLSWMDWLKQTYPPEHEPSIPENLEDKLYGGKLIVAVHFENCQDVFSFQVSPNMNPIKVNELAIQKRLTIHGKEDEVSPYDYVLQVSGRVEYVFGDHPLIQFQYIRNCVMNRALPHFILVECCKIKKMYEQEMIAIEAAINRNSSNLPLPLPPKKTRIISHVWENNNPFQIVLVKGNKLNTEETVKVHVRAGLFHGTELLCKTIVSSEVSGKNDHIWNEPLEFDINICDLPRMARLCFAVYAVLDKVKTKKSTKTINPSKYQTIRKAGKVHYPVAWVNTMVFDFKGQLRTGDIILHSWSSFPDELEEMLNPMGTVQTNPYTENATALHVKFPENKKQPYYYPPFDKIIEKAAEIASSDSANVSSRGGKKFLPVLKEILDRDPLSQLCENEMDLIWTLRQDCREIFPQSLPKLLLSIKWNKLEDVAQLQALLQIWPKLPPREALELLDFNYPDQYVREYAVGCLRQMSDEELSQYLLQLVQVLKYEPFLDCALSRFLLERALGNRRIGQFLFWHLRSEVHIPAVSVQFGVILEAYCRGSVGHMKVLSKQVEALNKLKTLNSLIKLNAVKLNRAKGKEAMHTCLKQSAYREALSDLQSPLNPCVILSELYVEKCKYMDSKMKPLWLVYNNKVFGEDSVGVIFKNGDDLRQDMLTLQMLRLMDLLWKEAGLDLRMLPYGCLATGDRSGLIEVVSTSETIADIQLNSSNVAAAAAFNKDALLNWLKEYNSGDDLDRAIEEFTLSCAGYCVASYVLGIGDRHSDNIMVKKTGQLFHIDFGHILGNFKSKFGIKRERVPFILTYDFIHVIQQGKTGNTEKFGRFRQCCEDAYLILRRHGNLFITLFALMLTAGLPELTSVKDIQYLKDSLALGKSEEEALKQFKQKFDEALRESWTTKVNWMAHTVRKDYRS
# Sequence (P27986 whole entry partner, species assumed): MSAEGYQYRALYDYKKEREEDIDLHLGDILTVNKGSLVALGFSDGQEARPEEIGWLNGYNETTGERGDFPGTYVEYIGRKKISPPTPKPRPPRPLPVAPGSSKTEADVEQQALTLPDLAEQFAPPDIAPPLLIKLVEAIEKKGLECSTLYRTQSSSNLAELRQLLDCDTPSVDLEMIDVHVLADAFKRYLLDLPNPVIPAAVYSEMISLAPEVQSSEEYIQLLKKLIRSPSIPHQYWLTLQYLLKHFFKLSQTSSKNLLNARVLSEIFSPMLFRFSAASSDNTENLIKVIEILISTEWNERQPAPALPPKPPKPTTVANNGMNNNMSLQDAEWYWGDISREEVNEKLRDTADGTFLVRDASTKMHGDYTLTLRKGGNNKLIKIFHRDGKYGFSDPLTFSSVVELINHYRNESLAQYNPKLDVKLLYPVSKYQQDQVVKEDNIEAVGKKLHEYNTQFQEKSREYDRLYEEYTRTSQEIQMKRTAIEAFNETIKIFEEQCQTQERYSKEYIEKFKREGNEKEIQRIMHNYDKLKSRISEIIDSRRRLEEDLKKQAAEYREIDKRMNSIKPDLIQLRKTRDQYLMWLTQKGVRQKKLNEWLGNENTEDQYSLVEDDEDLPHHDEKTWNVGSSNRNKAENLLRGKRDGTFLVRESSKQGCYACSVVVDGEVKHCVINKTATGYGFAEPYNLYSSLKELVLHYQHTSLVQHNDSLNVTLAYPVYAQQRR
# assayDetails: Transcreener KINASE Assay, kinase inhibition of p110β/p85α
# Assay type: biochemical
# setupConditions: @ 1 uM
readout: PI3Kβ IH % @ 1 uM (%)

Here's what some known entries look like.
# compound, readout, units, measurement
measured = [
    ("COc1cccc(-n2c([C@@H]3CCCN3c3ncnc4[nH]cc(C#N)c34)nn3cccc3c2=O)c1 [Compound 9]", "PI3Kβ IH % @ 1 uM", "%", 31.1),
    ("Nc1nc(N2CCC[C@H]2c2nn3cccc3c(=O)n2-c2ccccc2)c2cc[nH]c2n1 [Compound 10]", "PI3Kβ IH % @ 1 uM", "%", 6.0),
    ("NC(=O)c1c[nH]c2ncnc(N3CCC[C@H]3c3nn4cccc4c(=O)n3-c3ccccc3)c12 [Compound 94]", "PI3Kβ IH % @ 1 uM", "%", 53.5),
    ("Nc1nc(N2CCC[C@H]2c2nn3cccc3c(=O)n2-c2ccccc2)c2nc[nH]c2n1 [Compound 2]", "PI3Kβ IH % @ 1 uM", "%", 38.0),
]

(A) CC(Nc1ncnc2[nH]cc(C#N)c12)c1cc2cccn2c(=O)n1-c1ccccc1 (centres unmarked) [Compound 121]
(B) N#Cc1ccn2nc([C@@H]3CCCN3c3ncnc4[nH]cnc34)n(-c3ccccc3)c(=O)c12 [Compound 112]
(C) N#Cc1c[nH]c2ncnc(N3CCC[C@@H]3c3nn4cccc4c(=O)n3-c3ccccc3)c12 [Compound 22]
(D) COc1cccc(-n2c([C@@H]3CCCN3c3ncnc(N)c3C#N)nn3cccc3c2=O)c1 [Compound 19]
Challenge: Ranking field: PI3Kβ IH % @ 1 uM; order: falling. # respond with the labels, arranged in the requested order
Response given: A, B, D, C
